target: METTL3/METTL14 (Homo sapiens); assay: METTL3-14 standard enzyme assay (3H-SAM flashplate); details: Table 4; METTL3 biochemical assay
Sequence (Q86U44 whole entry, species assumed): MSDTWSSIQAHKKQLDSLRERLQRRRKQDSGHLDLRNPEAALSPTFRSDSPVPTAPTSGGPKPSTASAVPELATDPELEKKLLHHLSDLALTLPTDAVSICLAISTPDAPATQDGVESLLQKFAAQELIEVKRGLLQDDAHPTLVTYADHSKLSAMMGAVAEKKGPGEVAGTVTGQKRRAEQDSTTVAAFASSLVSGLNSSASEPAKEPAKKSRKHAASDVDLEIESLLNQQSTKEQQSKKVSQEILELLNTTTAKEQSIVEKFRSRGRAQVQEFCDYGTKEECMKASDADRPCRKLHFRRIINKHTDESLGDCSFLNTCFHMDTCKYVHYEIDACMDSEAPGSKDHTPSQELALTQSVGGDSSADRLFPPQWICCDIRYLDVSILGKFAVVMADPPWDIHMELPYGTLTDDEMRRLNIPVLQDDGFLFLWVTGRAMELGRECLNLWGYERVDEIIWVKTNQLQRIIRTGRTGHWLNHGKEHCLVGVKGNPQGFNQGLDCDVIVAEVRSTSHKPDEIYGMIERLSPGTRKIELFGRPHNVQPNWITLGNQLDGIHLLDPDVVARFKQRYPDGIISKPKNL
Sequence (Q9HCE5 whole entry partner, species assumed): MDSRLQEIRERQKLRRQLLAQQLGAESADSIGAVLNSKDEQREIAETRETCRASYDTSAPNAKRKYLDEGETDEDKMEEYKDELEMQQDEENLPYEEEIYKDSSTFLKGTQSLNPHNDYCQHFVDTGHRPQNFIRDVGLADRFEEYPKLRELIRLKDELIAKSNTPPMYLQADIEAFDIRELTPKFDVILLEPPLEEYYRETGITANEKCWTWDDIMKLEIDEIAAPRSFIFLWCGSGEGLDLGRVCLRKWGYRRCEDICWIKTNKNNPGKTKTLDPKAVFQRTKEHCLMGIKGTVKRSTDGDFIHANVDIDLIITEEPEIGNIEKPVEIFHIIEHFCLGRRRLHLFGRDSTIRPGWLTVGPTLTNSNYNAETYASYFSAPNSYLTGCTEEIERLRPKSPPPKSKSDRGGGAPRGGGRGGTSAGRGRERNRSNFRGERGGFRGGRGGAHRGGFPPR
REPORTED_METRIC: IC50

Some solved cases for reference:
>>> df
                                   compound             measurement_target       result
0  Cc1ccc2nc(NC(=O)[C@H]3O[C@@H](n4cc(-c5ccn(C)n5)c5c(N)ncnc54)[C@H](O)[C@@H]3O)sc2c1  METTL3/METTL14 (Homo sapiens)       ≥ 1 µM
1  CC1CC(NC(=O)[C@H]2O[C@@H](n3cc(-c4ccn(C)n4)c4c(N)ncnc43)[C@H](O)[C@@H]2O)CCN1 (stereo in doubt) [Compound I-212]  METTL3/METTL14 (Homo sapiens)  0.1 to 1 µM
2  Cn1ccc(-c2cn([C@@H]3O[C@H](C(=O)NCCC4CCOCC4)[C@@H](O)[C@H]3O)c3ncnc(N)c23)n1  METTL3/METTL14 (Homo sapiens)  0.1 to 1 µM
3  CN(C)CCCN(C(=O)[C@H]1O[C@@H](n2cc(-c3ccn(C)n3)c3c(N)ncnc32)[C@H](O)[C@@H]1O)C1CCN(C)CC1  METTL3/METTL14 (Homo sapiens)  0.1 to 1 µM
4  Cn1ccc(-c2cn([C@@H]3O[C@H](C(=O)NC4CCC5(CC4)CNC5)[C@@H](O)[C@H]3O)c3ncnc(N)c23)n1  METTL3/METTL14 (Homo sapiens)  0.1 to 1 µM

IC50 lookup needed for Cn1ccc(-c2cn([C@@H]3O[C@H](C(=O)NCC4CCOC4)[C@@H](O)[C@H]3O)c3ncnc(N)c23)n1 (stereo partly drawn) , thanks.
≥ 1 µM

Name the recorded IC50 for "COC(=O)[C@@H](N)CCNC(=O)[C@H]1O[C@@H](n2cc(-c3ccn(C)n3)c3c(N)ncnc32)[C@H](O)[C@@H]1O" .
≥ 1 µM

Looking for the measured IC50 of "Cn1ccc(-c2cn([C@@H]3O[C@H](C(=O)NC[C@H]4CC[C@H](O)CC4)[C@@H](O)[C@H]3O)c3ncnc(N)c23)n1" , can you help?
≥ 1 µM

State the recorded IC50 for this entry: "Cn1ccc(-c2cn([C@@H]3O[C@H](C(=O)Nc4cccc(C#N)c4)[C@@H](O)[C@H]3O)c3ncnc(N)c23)n1"
0.1 to 1 µM

Entry "CN1CCC(N(CCCNC(=O)OCc2ccccc2)C(=O)[C@H]2O[C@@H](n3cc(-c4ccn(C)n4)c4c(N)ncnc43)[C@H](O)[C@@H]2O)CC1" has what IC50?
0.1 to 1 µM

Would you mind telling me what IC50 value was observed for "COc1cccc(NC(=O)[C@H]2O[C@@H](n3cc(-c4ccn(C)n4)c4c(N)ncnc43)[C@H](O)[C@@H]2O)c1" ?
≥ 1 µM

What IC50 value was documented for this compound, Cn1ccc(-c2cn([C@@H]3O[C@H](C(=O)NC4CCNC(=O)C4)[C@@H](O)[C@H]3O)c3ncnc(N)c23)n1 (stereo partly drawn) ?
≥ 1 µM

State the recorded IC50 for this entry: "Cn1ccc(-c2cn([C@@H]3O[C@H](C(=O)Nc4ccc5ccccc5c4)[C@@H](O)[C@H]3O)c3ncnc(N)c23)n1"
0.1 to 1 µM

If you can, please state the reported IC50 value of "Cn1ccc(-c2cn([C@@H]3O[C@H](C(N)=O)[C@@H](O)[C@H]3O)c3ncnc(N)c23)n1" .
≥ 1 µM

Entry "Cn1ccc(-c2cn([C@@H]3O[C@H](C(=O)NCCc4ccc(Cl)cc4)[C@@H](O)[C@H]3O)c3ncnc(N)c23)n1" has what IC50?
0.1 to 1 µM

For "CC(=O)Nc1ccccc1NC(=O)[C@H]1O[C@@H](n2cc(-c3ccn(C)n3)c3c(N)ncnc32)[C@H](O)[C@@H]1O" , what is its reported IC50?
0.1 to 1 µM

Given the compound "Cn1ccc(-c2cn([C@@H]3O[C@H](C(=O)NCCc4ccncc4)[C@@H](O)[C@H]3O)c3ncnc(N)c23)n1" , what is its reported IC50?
0.1 to 1 µM

Recorded IC50 of "CC(C)c1nnc(NC(=O)[C@H]2O[C@@H](n3cc(-c4ccn(C)n4)c4c(N)ncnc43)[C@H](O)[C@@H]2O)s1" , please.
≥ 1 µM

Sample "Cc1nc2cc(NC(=O)[C@H]3O[C@@H](n4cc(-c5ccn(C)n5)c5c(N)ncnc54)[C@H](O)[C@@H]3O)ccc2o1" — what was its IC50?
0.01 to 0.1 µM
